# procedure_details: Plasma pharmacokinetics of phenolic metabolites after one 450 mg capsule of the supplement (UHPLC-ESI-MS/MS)
# Type: in vivo, human
# condition_description: supplemented volunteers (n = 10), 450 mg capsule, mean ± SEM
measured_parameter: AUC0-24 (µM·h)
Please give a number only; it is taken to be in µM·h.

Answered cases to consult:
1) O=C1CCC(Cc2ccc(OS(=O)(=O)O)c(O)c2)O1 (stereo not drawn)    0.1417
2) COc1ccc(C2CC(=O)c3c(O)cc(OC4OC(C(=O)O)C(O)C(O)C4O)cc3O2)cc1O (stereo not drawn)    0.15205
3) O=C1CCC(Cc2cc(O)cc(OS(=O)(=O)O)c2)O1 (stereo not drawn)    0.03046
4) O=C1CCC(Cc2cc(O)cc(OC3OC(C(=O)O)C(O)C(O)C3O)c2)O1 (stereo not drawn)    0.12555

Looking up O=C(O)C1OC(Oc2cc(CCO)ccc2O)C(O)C(O)C1O (stereo not drawn) , I found its AUC0-24 recorded as 0.05092

Looking up "O=C(O)CCc1ccc(O)c(OS(=O)(=O)O)c1" , I found its AUC0-24 recorded as 0.02741

Looking up "O=C(O)CCc1cccc(O)c1.O=C(O)CCc1cccc(O)c1" , I found its AUC0-24 recorded as 1.55429

Looking up O=C1CCC(Cc2cccc(O[C@@H]3O[C@H](C(=O)O)[C@@H](O)[C@H](O)[C@H]3O)c2)O1 (stereo partly drawn) , I found its AUC0-24 recorded as 0.022

Looking up "O=C(O)CNC(=O)c1ccc(O)cc1" , I found its AUC0-24 recorded as 5.71944

* * *

Below, each entry is listed with its recorded Urinary excretion 6–10 (h).
# procedure_details: Urinary excretion of phenolic metabolites over 48 h after one 450 mg capsule of the supplement (UHPLC-ESI-MS/MS)
# Assay type: in vivo, human
# condition_description: urine, n = 10, mean ± SEM
Please give a number only; it is taken to be in µg.

Looking up COc1ccc(C2CC(=O)c3c(O)cc(OC4OC(C(=O)O)C(O)C(O)C4O)cc3O2)cc1O (stereo not shown) , I found its Urinary excretion 6–10 (h) recorded as 28.56

Looking up O=C1CCC(Cc2ccc(OS(=O)(=O)O)c(O)c2)O1 (stereo not shown) , I found its Urinary excretion 6–10 (h) recorded as 2277.16

Looking up O=C(O)c1ccc(O)c(OC2OC(C(=O)O)C(O)C(O)C2O)c1 (stereo not shown) , I found its Urinary excretion 6–10 (h) recorded as 12.53

Looking up "COc1cc(C(=O)O)cc(OC)c1O.COc1cc(C(=O)O)cc(OC)c1O" , I found its Urinary excretion 6–10 (h) recorded as 3.57

* * *

Below, each entry is listed with its recorded Urinary excretion 10–14 (h).
# procedure_details: Urinary excretion of phenolic metabolites over 48 h after one 450 mg capsule of the supplement (UHPLC-ESI-MS/MS)
# Format: in vivo, human
# condition_description: urine, n = 10, mean ± SEM
Please give a number only; it is taken to be in µg.

Answered cases to consult:
1. COc1ccc(C2CC(=O)c3c(O)cc(OC4OC(C(=O)O)C(O)C(O)C4O)cc3O2)cc1O (centres unmarked) [compound 28]    9.57
2. O=C1CCC(Cc2cc(O)cc(OS(=O)(=O)O)c2)O1 (centres unmarked) [compound 16]    944.18

Looking up COc1cc(C(=O)O)cc(OC)c1O.COc1cc(C(=O)O)cc(OC)c1O [compound 39] , I found its Urinary excretion 10–14 (h) recorded as 1.42

Looking up O=C(O)C1OC(Oc2cc(CCO)ccc2O)C(O)C(O)C1O (centres unmarked) [compound 33] , I found its Urinary excretion 10–14 (h) recorded as 10.90

Looking up O=C1CCC(Cc2cccc(OS(=O)(=O)O)c2)O1 (centres unmarked) [compound 23] , I found its Urinary excretion 10–14 (h) recorded as 76.01

* * *

# procedure_details: Urinary excretion of phenolic metabolites over 48 h after one 450 mg capsule of the supplement (UHPLC-ESI-MS/MS)
# Type: in vivo, human
# condition_description: urine, n = 10, mean ± SEM
Entry flag: 1 if Urinary excretion 24–32 (h) reaches 70 µg; 0 if it does not.

Previously resolved entries follow.
1. O=C(O)[C@H]1O[C@@H](Oc2ccc3c(c2)oc(=O)c2ccccc23)[C@H](O)[C@@H](O)[C@@H]1O [compound 44]    1
2. O=C1CCC(Cc2cc(O)cc(OC3OC(C(=O)O)C(O)C(O)C3O)c2)O1 (centres unmarked) [compound 10]    1
3. O=C1CCC(Cc2ccc(OS(=O)(=O)O)c(O)c2)O1 (centres unmarked) [compound 21]    1
4. O=C(O)C1OC(Oc2cc(CCO)ccc2O)C(O)C(O)C1O (centres unmarked) [compound 33]    0
5. COc1ccc(C2CC(=O)c3c(O)cc(OC4OC(C(=O)O)C(O)C(O)C4O)cc3O2)cc1O (centres unmarked) [compound 28]    0
6. O=C(O)CCc1ccc(O)c(OS(=O)(=O)O)c1 [compound 41]    1

stdin: Answer whether Urinary excretion 24–32 (h) of COc1cc(C(=O)O)cc(OC)c1O.COc1cc(C(=O)O)cc(OC)c1O [compound 39] is greater than or equal to 70 µg.
stdout: 0

stdin: Answer whether Urinary excretion 24–32 (h) of O=C1CCC(Cc2cc(O)cc(OS(=O)(=O)O)c2)O1 (centres unmarked) [compound 16] is greater than or equal to 70 µg.
stdout: 1

* * *

Below, each entry is listed with its recorded Tpres (time of presence of metabolites in circulation).
# procedure_details: Plasma pharmacokinetics of phenolic metabolites after one 450 mg capsule of the supplement (UHPLC-ESI-MS/MS)
# Type: in vivo, human
# condition_description: n = 10, mean ± SEM, interval between first and last appearance
Please give a number only; it is taken to be in h.

Answered cases to consult:
1) O=C(O)C1OC(Oc2cc(CCO)ccc2O)C(O)C(O)C1O (stereo not shown) [compound 33]    8.45
2) O=C1CCC(Cc2cc(O)cc(OS(=O)(=O)O)c2)O1 (stereo not shown) [compound 16]    10.57
3) COc1ccc(C2CC(=O)c3c(O)cc(OC4OC(C(=O)O)C(O)C(O)C4O)cc3O2)cc1O (stereo not shown) [compound 28]    17.83
4) O=C1CCC(Cc2ccc(OS(=O)(=O)O)c(O)c2)O1 (stereo not shown) [compound 21]    12.15
5) O=C(O)CCc1ccc(O)c(OS(=O)(=O)O)c1 [compound 41]    9.06
6) O=C1CCC(Cc2cccc(OS(=O)(=O)O)c2)O1 (stereo not shown) [compound 23]    9.33

Switching to the query record.
Looking up O=C(O)CCc1cccc(O)c1.O=C(O)CCc1cccc(O)c1 [compound 40] , I found its Tpres (time of presence of metabolites in circulation) recorded as 7.50

* * *

# procedure_details: Plasma pharmacokinetics of phenolic metabolites after one 450 mg capsule of the supplement (UHPLC-ESI-MS/MS)
# Assay type: in vivo, human
# condition_description: n = 10, mean ± SEM
Below, each entry is listed with its recorded Tmax.

Looking up COc1ccc(C2CC(=O)c3c(O)cc(OC4OC(C(=O)O)C(O)C(O)C4O)cc3O2)cc1O (stereo not shown) [compound 28] , I found its Tmax recorded as 7.11 ± 0.90 h

Looking up O=C1CCC(Cc2cccc(OS(=O)(=O)O)c2)O1 (stereo not shown) [compound 23] , I found its Tmax recorded as 8.22 ± 2.13 h

Looking up COc1cc(CCC(=O)O)ccc1OS(=O)(=O)O [compound 46] , I found its Tmax recorded as 6.43 ± 2.97 h

Looking up O=C1CCC(Cc2cc(O)cc(OS(=O)(=O)O)c2)O1 (stereo not shown) [compound 16] , I found its Tmax recorded as 8.88 ± 2.41 h

* * *

Below, each entry is listed with its recorded Urinary excretion 24–32 (h).
# procedure_details: Urinary excretion of phenolic metabolites over 48 h after one 450 mg capsule of the supplement (UHPLC-ESI-MS/MS)
# Format: in vivo, human
# condition_description: urine, n = 10, mean ± SEM
Please give a number only; it is taken to be in µg.

1) O=C(O)[C@H]1O[C@@H](Oc2ccc3c(c2)oc(=O)c2ccc(O)cc23)[C@H](O)[C@@H](O)[C@@H]1O [compound 43]    14.38
2) O=C1CCC(Cc2cccc(OS(=O)(=O)O)c2)O1 (stereo not drawn) [compound 23]    100.92

Looking up O=C1CCC(Cc2cccc(O[C@@H]3O[C@H](C(=O)O)[C@@H](O)[C@H](O)[C@H]3O)c2)O1 (stereo partly drawn) [compound 17] , I found its Urinary excretion 24–32 (h) recorded as 81.71

All values here come from paper PMC9692523.
